- System: U2OS
- test.details: Incucyte cell viability with U2OS; also: unitless GR value; below 1 slowed growth and below 0 cell loss
- Type: toxicity, cell-based
- settings: human, 12 h, 10 µM, compound concentration 10 uM, replicate number 2
reported.metric: Growth Rate
// keep it numeric: no unit symbol after the value

Reported Growth Rate ( CCN1C(=O)/C(=C(\NC2CCN(C)CC2)c2ccc3c(c2)OCO3)c2cc(C(C)=O)ccc21 ) = 0.81

Reported Growth Rate ( O=C1Nc2nc(-c3c(O)cccc3OCC3CC3)cc([C@@H]3CCCNC3)c2CO1 ) = 0.47

Reported Growth Rate ( C=C[C@@]12CCc3cc(O)ccc3[C@H]1CC[C@@]1(C)[C@H]2CC[C@@H]1O ) = 0.95

Reported Growth Rate ( CC(C)(C)c1cc(NC(=O)c2csc(Nc3ccccn3)n2)no1 ) = 0.69

Reported Growth Rate ( COc1ccccc1C(=O)Nc1cccc(NC(=O)c2cccc(C)c2)c1 ) = 0.75

Reported Growth Rate ( COCCNC1CCC(Nc2cc(-c3csc(NCC4(C#N)CCOCC4)n3)c(Cl)cn2)CC1 (stereo unspecified) ) = 0.08

Reported Growth Rate ( CN(C(=O)CCOCCOCCOCCOCCNc1cccc2c1C(=O)N(C1CCC(=O)NC1=O)C2=O)[C@H]1CC[C@@]2(C)[C@@H](CC[C@@H]3[C@@H]2CC[C@]2(C)[C@@H](c4ccc5ccncc5c4)CC[C@@H]32)C1 (stereo partly specified) ) = -0.46

Reported Growth Rate ( CN(C)CC#Cc1ccc2[nH]c3c(c2c1)-c1nc(N)ncc1CCC3 ) = 0.59

Reported Growth Rate ( Cc1cc(OC2CCS(=O)(=O)CC2)cc(C)c1-c1cccc(COc2ccc(C(=O)O)c(F)c2)c1 ) = 0.49

Reported Growth Rate ( Cc1cc2nc(N3CCC(C(=O)NC4CCCC4)CC3)n(C(C)C)c2cc1C ) = 0.47

Reported Growth Rate ( O=C(Nc1cccc(C(F)(F)F)c1)c1cc(Cl)ccc1O ) = 0.59

Reported Growth Rate ( CC(C)c1cnc(NC(=O)Cc2ccccc2)s1 ) = 0.72

Reported Growth Rate ( CCOc1cc(CC(=O)N[C@@H](CC(C)C)c2ccccc2N2CCCCC2)ccc1C(=O)O [REPAGLINIDE] ) = 0.94

Reported Growth Rate ( CCc1cc2c(cc1N1CCC(N3CCOCC3)CC1)C(C)(C)c1[nH]c3cc(C#N)ccc3c1C2=O ) = 0.78

Reported Growth Rate ( CN(C)c1cc2c(Nc3ccc4c(cnn4Cc4ccccc4)c3)ncnc2cn1 [GW282974X] ) = 0.87

Reported Growth Rate ( O=C(Nc1c(-c2cccs2)nc2ccc(Cl)cn12)c1ccc(Cl)cc1 ) = 0.81

Reported Growth Rate ( COc1cc2nc(C)nc(NC3(c4ccccc4)CC3)c2cc1OC ) = 0.97

Reported Growth Rate ( COc1ccc(OC)c(-c2ccc(NC(=O)c3ccncc3F)cc2)c1 ) = 0.84

Reported Growth Rate ( O=C(Nc1ccc(Cl)c(-c2ccccn2)c1)c1cccc(COc2ccc(Br)cc2CNCCO)c1.O=CO ) = 0.6

Reported Growth Rate ( Cc1nc2cccnc2n2c(-c3cc(C(C)(C)O)ncc3Cl)nnc12 ) = 0.74

Reported Growth Rate ( Cc1cc(-c2nncc3c(C(C)(C)C)c(OCc4ncnn4C)nn23)no1 ) = 0.67

Reported Growth Rate ( O=C1c2c(Br)c(Br)c(Br)c(Br)c2C(=O)N1c1ncc[nH]1 ) = 0.88

Reported Growth Rate ( Cc1ccc2c(NS(=O)(=O)c3ccccc3Cl)cccc2c1Oc1ncccc1-c1ccnc(N[C@H]2CCCNC2)n1.Cl ) = 0.62

Reported Growth Rate ( CCCCC(C)(O)C/C=C/[C@H]1[C@H](O)CC(=O)[C@@H]1CCCCCCC(=O)O (stereo partly specified) ) = 0.94

Reported Growth Rate ( Cc1ccc(S(=O)(=O)Nc2ccc(-n3nc(C(F)(F)F)cc3C(F)(F)F)cc2)cc1 ) = 0.8

Reported Growth Rate ( Cn1cc(NC(=O)c2ccc3nc4n(c3c2)CCCNC4=O)nc1C(=O)NC1CCCC1 ) = 0.97

Reported Growth Rate ( C[C@H]1CN(C2COC2)CCN1c1ccc(Nc2cc(-c3ccnc(N4CCn5c(cc6c5CC(C)(C)C6)C4=O)c3CO)cn(C)c2=O)nc1 ) = 0.99

Reported Growth Rate ( CCCCCCCC/C=C\CCCCCCCC(=O)NCc1ccc(O)c(OC)c1 ) = 0.94

Reported Growth Rate ( O=C1NCCc2c(OCCCCN3CCCCC3)cccc21 ) = 0.86

Reported Growth Rate ( Cc1cc(C)nc(Nc2ncc(C(=O)NCCc3c(C)[nH]c4ccccc34)cn2)c1.Cl ) = 0.87

Reported Growth Rate ( CC1(C)Cc2nc(C3CCCC3)c([C@@H](F)c3ccc(C(F)(F)F)cc3)c(C3CCCCC3)c2[C@@H](O)C1 ) = 0.54

Reported Growth Rate ( C[C@@H](C(N)=O)[C@H](N)c1nc2cc(C(C)(C)C)ccc2[nH]1 ) = 0.86

Reported Growth Rate ( COc1cc(N2CCC(N3CCN(C)CC3)CC2)ccc1Nc1ncc(Cl)c(Nc2ccccc2S(=O)(=O)C(C)C)n1 ) = 0.29

Reported Growth Rate ( N=C(N)NCCC[C@H](NC(=O)C(c1ccccc1)c1ccccc1)C(=O)NCc1ccc(CNC(N)=O)cc1.O=C(O)C(F)(F)F ) = 0.88

Reported Growth Rate ( Cc1nsc(Nc2cnc(C(F)(F)F)cn2)c1C(=O)Nc1ccc(O[C@H]2CCCN(CC(F)(F)F)C2)nc1 ) = 0.59

Reported Growth Rate ( Cc1cc(-c2cc3ncccc3c(OC[C@H]3CCCNC3)n2)ccc1N(C)C.O=C(O)C(F)(F)F ) = 0.26
